Values compiled from patent US20240392024A1.

In this section we review reported pEC50 values for a set of binders.
- system: T1, TNFR2-His (Sino Biological, 10417-H08H, NP_001057.1 Met1-Asp257, with multi-histidine tag expressed on … (human, UniProt P20333 23-257))
- T1 construct: range 1-257; Bought protein; also called recombinant human TNFR2 protein; TNFR2-His antigen; not shown: C-terminal multi-histidine tag
- T1 sequence (looked up): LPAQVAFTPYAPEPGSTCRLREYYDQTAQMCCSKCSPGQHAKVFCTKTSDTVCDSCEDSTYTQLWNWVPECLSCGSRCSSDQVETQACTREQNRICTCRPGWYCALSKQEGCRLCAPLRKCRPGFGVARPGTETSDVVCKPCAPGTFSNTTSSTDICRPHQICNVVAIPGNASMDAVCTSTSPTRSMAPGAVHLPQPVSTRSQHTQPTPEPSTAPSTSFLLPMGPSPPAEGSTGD
- testSummary: ELISA, coated TNFR2-His
Formally, pEC50 is defined as -log10 of the concentration c, with c in mol/L.

Worked cases, pEC50 given:
- binder: "11G2huVH1 + huVL3(P07271) (antibody, V domains shown, Humanized 11G2) VH: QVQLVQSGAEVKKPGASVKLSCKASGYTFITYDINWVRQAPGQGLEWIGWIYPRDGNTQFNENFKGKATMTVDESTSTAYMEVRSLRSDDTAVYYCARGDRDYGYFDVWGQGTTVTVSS VL: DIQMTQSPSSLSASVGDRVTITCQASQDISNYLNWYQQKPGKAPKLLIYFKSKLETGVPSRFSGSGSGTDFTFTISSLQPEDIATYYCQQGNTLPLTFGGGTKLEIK"
  pEC50: 9.32
- binder: "human-mouse chimeric TNFR2 monoclonal antibody 12E12-hFc (antibody, V domains shown, Mouse V regions of clone 12E12 with human constant regions; also called human-mouse chimeric 12E12 antibody) VH: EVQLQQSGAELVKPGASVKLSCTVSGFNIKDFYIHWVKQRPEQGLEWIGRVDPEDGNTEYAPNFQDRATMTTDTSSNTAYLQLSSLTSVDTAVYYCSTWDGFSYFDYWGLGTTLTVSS VL: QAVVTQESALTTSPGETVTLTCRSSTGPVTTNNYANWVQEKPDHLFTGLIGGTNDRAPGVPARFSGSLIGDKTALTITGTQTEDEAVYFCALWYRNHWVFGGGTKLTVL"
  pEC50: 9.58
- binder: "33C12huVH2 + huVL2(P07301) (antibody, V domains shown, Humanized 33C12) VH: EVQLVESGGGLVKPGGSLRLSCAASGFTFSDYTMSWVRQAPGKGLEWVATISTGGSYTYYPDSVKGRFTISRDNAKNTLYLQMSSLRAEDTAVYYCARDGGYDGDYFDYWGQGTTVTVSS VL: ENVLTQSPATLSLSPGERATLSCRASSSVSSSYLHWYQQKPGQAPRLWIYRTSNLASGVPARFSGSGSGTDFTLTISRLEPEDFAVYYCQQYSGYPLTFGGGTKLEIK"
  pEC50: 9.05

Attention now shifts to the item below.
Would you kindly share the measured pEC50 for 11G2huVH2 + huVL2(P07267) (antibody, V domains shown, Humanized 11G2) VH: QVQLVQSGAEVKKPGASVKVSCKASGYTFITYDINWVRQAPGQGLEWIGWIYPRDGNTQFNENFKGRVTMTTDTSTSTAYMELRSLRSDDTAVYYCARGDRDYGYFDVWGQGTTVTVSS VL: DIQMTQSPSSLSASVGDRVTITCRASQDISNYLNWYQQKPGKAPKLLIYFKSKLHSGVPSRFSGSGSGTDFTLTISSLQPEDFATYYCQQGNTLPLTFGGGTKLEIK ?
9.55
